This collection of values is drawn from ChEMBL document CHEMBL4219122.

Test system: HCT-116
Assay: Growth inhibition of human HCT116 cells after 48 hrs by sulforhodamine B-based colorimetric assay
Format: functional, cell-based
Settings: HCT-116, 48 h
QUANTITY MEASURED: IC50 (µM)
Note: unit µM is implicit; provide only the numeric part.

Record Cc1cn([C@H]2C[C@H](C3(c4ccc(NC(=O)CCCCCCC(=O)O)cc4)SCCCS3)[C@@H](CO[Si](C)(C)C(C)(C)C)O2)c(=O)[nH]c1=O , field IC50: 12.3

* * *

Measured pIC50 accompanies every entry in the list below.
Target: UniProt:Q13547
Sequence (Q13547 whole entry): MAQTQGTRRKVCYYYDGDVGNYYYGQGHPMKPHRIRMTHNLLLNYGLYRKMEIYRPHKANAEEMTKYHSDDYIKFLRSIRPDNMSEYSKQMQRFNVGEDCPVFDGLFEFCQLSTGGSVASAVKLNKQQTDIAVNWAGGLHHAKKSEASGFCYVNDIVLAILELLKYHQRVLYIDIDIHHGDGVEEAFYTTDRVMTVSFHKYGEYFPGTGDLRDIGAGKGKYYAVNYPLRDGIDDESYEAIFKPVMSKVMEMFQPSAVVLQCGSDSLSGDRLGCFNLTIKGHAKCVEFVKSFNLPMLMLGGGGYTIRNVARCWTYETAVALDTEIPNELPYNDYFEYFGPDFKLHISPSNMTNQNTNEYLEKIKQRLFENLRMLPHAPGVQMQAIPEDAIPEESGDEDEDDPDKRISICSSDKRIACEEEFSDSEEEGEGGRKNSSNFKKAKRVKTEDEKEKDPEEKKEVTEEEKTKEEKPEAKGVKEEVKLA
Test: Inhibition of recombinant human HDAC1 expressed in HEK293T cells using Ac-KGLGK(Ac)-MCA as substrate after 30 mins in presence of DTT by fluorescence assay
Quick note: pIC50 means taking -log10 of the concentration in moles per liter.

Cc1cn([C@H]2C[C@H](C3(c4ccc(NC(=O)CCCCC(=O)NO)cc4)SCCCS3)[C@@H](CO[Si](C)(C)C(C)(C)C)O2)c(=O)[nH]c1=O	5.60

Consider Cc1cn([C@H]2C[C@H](C3(c4ccc(NC(=O)CCCCCCC(=O)NO)cc4)SCCCS3)[C@@H](CO[Si](C)(C)C(C)(C)C)O2)c(=O)[nH]c1=O . Its measured pIC50 is 6.14

Input Cc1cn([C@@H]2C[C@H](C3(c4ccc(NC(=O)CCCCC(=O)NO)cc4)SCCCS3)[C@@H](CO[Si](C)(C)C(C)(C)C)O2)c(=O)[nH]c1=O . Output pIC50: 5.55
